measured target: T1, human DLL3 (ACRO, DLL3-H52H4) (human, UniProt Q9NYJ7 27-479)
T1 construct: bought antigen of the Biacore assay; construct not described
T1 sequence (looked up): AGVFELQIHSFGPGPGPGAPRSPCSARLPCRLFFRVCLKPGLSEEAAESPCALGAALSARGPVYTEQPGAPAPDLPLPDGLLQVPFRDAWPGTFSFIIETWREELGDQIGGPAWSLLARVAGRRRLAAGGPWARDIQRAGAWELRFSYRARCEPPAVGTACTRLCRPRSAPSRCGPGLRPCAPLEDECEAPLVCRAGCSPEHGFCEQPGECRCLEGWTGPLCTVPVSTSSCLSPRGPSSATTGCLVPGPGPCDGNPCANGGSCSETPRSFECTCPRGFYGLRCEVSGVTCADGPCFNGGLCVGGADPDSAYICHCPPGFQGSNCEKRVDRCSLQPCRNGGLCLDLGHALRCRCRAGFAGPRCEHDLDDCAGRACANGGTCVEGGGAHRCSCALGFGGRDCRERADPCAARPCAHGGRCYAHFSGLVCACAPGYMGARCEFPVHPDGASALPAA
test description: SPR (Biacore 8K), antibody captured on Protein A chip, 1:1 fit
Readings of Kd for the listed binders

>>> value_reported("hAb100L2H3 (antibody, human IgG1, kappa, V domains shown) VH: EVQLVESGGGLVKPGGSLRLSCAASGFTFSDSGMHWIRQAPGKGLEWVAYISSGSSTIHYADTVKGRFTISRDNAKNSLYLQMNSLRAEDTAVYYCASPLYHYGRSYNAVAYWGQGTTVTVSS VL: DIQMTQSPSSLSASVGDRVTITCHASQNINVWLSWYQQKPGKIPKLLIYKASDLHTGVPSRFSGSGSGTDFTLTISSLQPEDVATYYCQQGQSYPLTFGGGTKVEIKR")
"0.664 nM"

Query block: Would you mind telling me what Kd value was observed for M100CHI (antibody, human IgG1, kappa, V domains shown, murine variable regions on human IgG1 / kappa constant regions; also called chimeric antibody of mAb100) VH: EVQLVESGGGLVKPGGSLKLSCAASGFTFSDSGMHWIRQAPEKGLEWVAYISSGSSTIHYADTVKGRFTISRDNAKNTLFLQMTSLRSEDTAMYYCASPLYYYGRSYNAVAYWGQGTSVTVSS VL: DIQMNQSPSSLSASLGDTITITCHASQNINVWLSWYQQKPGNIPKLLIYKASDLHTGVPSRFSGSGSGTGFTLTISSLQPEDIATYYCQQGQSYPLTFGGGTKLEIKR ?
Result block: 0.528 nM

Query block: Now consider hAb100L1H3 (antibody, human IgG1, kappa, V domains shown) VH: EVQLVESGGGLVKPGGSLRLSCAASGFTFSDSGMHWIRQAPGKGLEWVAYISSGSSTIHYADTVKGRFTISRDNAKNSLYLQMNSLRAEDTAVYYCASPLYHYGRSYNAVAYWGQGTTVTVSS VL: DIQMTQSPSSLSASVGDRVTITCHASQNINVWLSWYQQKPGKVPKLLIYKASDLHTGVPSRFSGSGSGTDFTLTISSLQPEDVATYYCQQGQSYPLTFGGGTKVEIKR and answer again.
Result block: 0.424 nM

Query block: Now consider hAb100L1H2 (antibody, human IgG1, kappa, V domains shown) VH: EVQLVESGGGLVKPGGSLRLSCAASGFTFSDSGMHWIRQAPGKGLEWVAYISSGSSTIHYADTVKGRFTISRDNAKNSLYLQMNSLRAEDTAVYYCASPLYYYGRSYNAVAYWGQGTTVTVSS VL: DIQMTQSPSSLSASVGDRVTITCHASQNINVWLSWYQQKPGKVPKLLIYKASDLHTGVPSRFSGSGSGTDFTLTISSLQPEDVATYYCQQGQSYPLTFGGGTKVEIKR and answer again.
Result block: 0.467 nM
